Target: UniProt:Q9H773
Measurement Protocol: DCTPP1 inhibition assay (malachite green)
Format: biochemical
Condition Notes: 35 nM DCTPP1, 35 μM dCTP, 20 minutes at 22° C.; read-out: IC50
Experimental Endpoint: IC50 (nM)

See these solved cases before continuing.
Prompt line: IC50 lookup needed for Cc1cc2c(nc(C)n2Cc2ccc(B(O)O)cc2)c([N+](=O)[O-])c1C , thanks.
Response line: 65

Prompt line: Look at this compound and give its reported IC50. Cc1nc2c([N+](=O)[O-])c(Cl)c(Cl)cc2n1Cc1ccc(B2OC(C)(C)C(C)(C)O2)cc1
Response line: 30

P: Cc1nc2c([N+](=O)[O-])c(Cl)c(Cl)cc2n1Cc1ccc(B(O)O)cc1
Q: O=[N+]([O-])c1c(Cl)c(Cl)cc2c1nc(C1CC1)n2Cc1ccc(B(O)O)cc1
Prompt line: For this pair, P and Q , which shows a numerically higher IC50? Select an item and report its label.
Response line: P
(P: 47 nM, Q: 27 nM)

P: Cc1nc2c([N+](=O)[O-])c(Cl)c(Cl)cc2n1Cc1ccc(B2OC(=O)CN(C)CC(=O)O2)cc1
Q: O=[N+]([O-])c1cccc2c1nc(C(F)(F)F)n2Cc1ccc(B(O)O)cc1
R: COc1ccc(Cn2c(C(F)(F)F)nc3c([N+](=O)[O-])c(C)c(C)cc32)cc1
S: Cc1nc2c([N+](=O)[O-])c(F)c(F)cc2n1Cc1ccccc1
Prompt line: Put the entries in order of IC50, starting with the largest number. Returns: the labels listed in the requested order.
Response line: S, Q, P, R
(S: 410 nM, Q: 206 nM, P: 44 nM, R: 14 nM)

P: COc1ccc(Cn2c(C)nc3c([N+](=O)[O-])c(Cl)c(Cl)cc32)cc1
Q: Cc1nc2c([N+](=O)[O-])c(Cl)c(Cl)cc2n1S(=O)(=O)c1ccccc1
Prompt line: Which of the two items, P and Q , has the greater recorded IC50? Mark your answer with the label of the selected entry.
Response line: Q

----------
In this section we review reported IC50 values for a set of molecules.
Target: DCTPP1 (Homo sapiens)
Sequence (Q9H773 1-170): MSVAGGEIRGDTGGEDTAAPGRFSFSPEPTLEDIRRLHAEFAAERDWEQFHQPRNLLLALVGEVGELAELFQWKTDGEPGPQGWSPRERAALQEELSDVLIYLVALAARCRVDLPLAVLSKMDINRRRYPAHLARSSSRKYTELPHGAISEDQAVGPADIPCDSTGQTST
Measurement Protocol: DCTPP1 inhibition assay (malachite green)
Type: biochemical
Condition Notes: 35 nM DCTPP1, 35 μM dCTP, 20 minutes at 22° C.; read-out: IC50 (nM), class

Prompt line: I have this molecule here, COc1ccc(Cn2c(OC)nc3c([N+](=O)[O-])cccc32)cc1 , and I need its recorded IC50.
Response line: ≥ 1000 nM

***
Prompt line: # get_value(readout='IC50', item= COc1ccc(Cn2c(C(F)(F)F)nc3c([N+](=O)[O-])cccc32)cc1 )
Response line: ≥ 1000 nM

----------
Target: DCTPP1 (Homo sapiens, UniProt Q9H773)
Sequence (Q9H773 1-170): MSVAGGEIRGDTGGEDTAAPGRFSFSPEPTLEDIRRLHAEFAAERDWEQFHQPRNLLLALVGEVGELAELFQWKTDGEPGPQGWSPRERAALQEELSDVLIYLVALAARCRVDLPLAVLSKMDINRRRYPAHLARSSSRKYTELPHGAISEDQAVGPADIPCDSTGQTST
Measurement Protocol: DCTPP1 inhibition assay (malachite green)
Type: biochemical
Condition Notes: 35 nM DCTPP1, 35 μM dCTP, 20 minutes at 22° C.; read-out: IC50 (nM), class
# key: entry, value: IC50

Prompt line: Checklist item: IC50 tested on DCTPP1 (Homo sapiens, UniProt Q9H773), entry Cc1ccc(Cn2c(C)nc3c([N+](=O)[O-])c(Cl)c(Cl)cc32)cc1 , value?
Response line: < 100 nM

Prompt line: Tell me reported IC50 for Cc1nc2c([N+](=O)[O-])c(Cl)c(Cl)cc2n1Cc1ccccc1 , tested with DCTPP1 (Homo sapiens, UniProt Q9H773).
Response line: < 100 nM

Prompt line: Missing value: IC50, DCTPP1 (Homo sapiens, UniProt Q9H773), entry COc1cccc(Cn2c(C)nc3c([N+](=O)[O-])c(Cl)c(Cl)cc32)c1 . Fill in?
Response line: 100 to 500 nM

Prompt line: Any idea what IC50 came out for Cc1cc2c(nc(C)n2Cc2ccc(Cl)cc2)c([N+](=O)[O-])c1C on DCTPP1 (Homo sapiens, UniProt Q9H773)?
Response line: < 100 nM

Prompt line: Param readout = IC50; param system = DCTPP1 (Homo sapiens, UniProt Q9H773); param query = C=CC(=O)Nc1ccc(Cn2c(C)nc3c([N+](=O)[O-])c(Cl)c(Cl)cc32)cc1 ; response: value
Response line: < 100 nM

Prompt line: Give DCTPP1 (Homo sapiens, UniProt Q9H773) IC50 for C=CC(=O)c1ccc(Cn2c(C)nc3c([N+](=O)[O-])c(Cl)c(Cl)cc32)cc1
Response line: < 100 nM

***
Prompt line: Hi! What's the reported IC50 for Cc1nc2c([N+](=O)[O-])c(Cl)c(Cl)cc2n1Cc1ccc(C=O)cc1 on DCTPP1 (Homo sapiens, UniProt Q9H773)?
Response line: 100 to 500 nM
